These entries and their values trace back to patent US5241065A.

System: rat
test.description: Toxicity, rat
Type: in vivo
experimental.conditions: result in words; dose in mpk within the value

compound	Toxicity, rat
Cc1cc2c(cc1O)C(C1CCCCC1)CN(C)CC2 (centres unmarked) [E, reference compound]	Lethal at 300 mpk
Cc1cc2c(cc1O)C(C1CCCC1)CN(C)CC2 (centres unmarked) [F, reference compound]	Lethal at 300 mpk
